FYI, the data here is from a melting point compilation (Tetko et al.; mined from patent text by program, amines drawn as free bases though some values may be those of a salt).

readout kind: melting point

[
  {
    "molecule": "COc1cc(C)c2c(c1O)CC(C)(c1ccccc1)C2=O (stereo not given)",
    "readout kind": "melting point",
    "result": "136 to 139 °C"
  },
  {
    "molecule": "N#Cc1cnc(Nc2ccc(OCCn3cncn3)cc2)nc1-c1ccccc1",
    "readout kind": "melting point",
    "result": "105 °C"
  },
  {
    "molecule": "OC(C#CCN1CCC(O)(c2ccc(Cl)cc2)CC1)c1ccc(F)cc1 (stereo not given)",
    "readout kind": "melting point",
    "result": "145 to 146 °C"
  },
  {
    "molecule": "Cc1ccc(C(C=O)=CN(C)C)c([N+](=O)[O-])c1",
    "readout kind": "melting point",
    "result": "117 to 119 °C"
  }
]

Here is another molecule to look at.
Item CCCCCCCCCCCCCCCCOc1ccc(OCC(=O)Nc2ccccc2CO)cc1 has what recorded melting point?
128 to 131 °C
